This collection of values is drawn from patent EP4682169A1.

# key: entry, value: absorbance at 450 nm
- study.target: T1, Claudin 18.2 VLP (UniProt P56856 1-261)
- T1 construct: Antigen coated on ELISA plates, 200 ng/well; source and construct not described; also called Claudin18.2-VLP protein; Claudin18.2 VLP antigen
- experiment.notes: ELISA, coated antigen 200 ng/well; antibody 0.041 ug/mL
measured.parameter: absorbance at 450 nm

1. 1-hIgG1Fc (Fc fusion, VHH-hIgG1Fc recombinant antibody; also called 1-hlgG1Fc; VHH-hIgG1Fc recombinant antibody of clone 1; not shown: human IgG1 Fc (hIgG1Fc)) EVQLVGSGGGLVQPGGSLRLSCAASGSILNLMTTGWYRQAPGKQRDLVATITFGGTTNYADSVKGRFTISRDKSKNTAYLQMDNLKPEDTAVYFCYADVIVGFQDRRVAWDAGTQVTVSS
0.271
2. 10-hIgG1Fc (Fc fusion, VHH-hIgG1Fc recombinant antibody; also called 10-hlgG1Fc; VHH-hIgG1Fc recombinant antibody of clone 10; not shown: human IgG1 Fc (hIgG1Fc)) QVQLAESGGGLVQPGGSLRLSCAASGNILSINYMGWYRQAPGKERELVATITRGGTTNYQGDLKGRFIISGDNTKDTVYLQMNNLQPEDTAVYYCYFRINFGILGGLRDYWGQGTQVTVSS
0.355
3. 5-hIgG1Fc (Fc fusion, VHH-hIgG1Fc recombinant antibody; also called 5-hlgG1Fc; VHH-hIgG1Fc recombinant antibody of clone 5; not shown: human IgG1 Fc (hIgG1Fc)) QVQLVESGGGLVQTGGSLRLSCAASDSTFSSYIMGWFRQAPGKEREFVAGITWSGGIKDYADSVKGRFTIARDNAKNTVYLQMNSLKPEDAAIYYCAANAIQLTRRSGDYAYWGQGTQVTVSS
0.275
4. 8-hIgG1Fc (Fc fusion, VHH-hIgG1Fc recombinant antibody; also called 8-hlgG1 Fc; VHH-hIgG1Fc recombinant antibody of clone 8; not shown: human IgG1 Fc (hIgG1Fc)) QVQLVESGGGLVQPGGSLRLSCAASGSIFGLNFMGWWRQAPGSQRELVAIATSGGSIQYGDSVKGRFTISRDNAKNTVYLQMASLKPEDTAVYYCNVHTYDFLGRDYWGQGTQVTVSL
0.337
